Exercise: for every item that follows, state its recorded pIC50.
# Tested on: total-p53 in MCF-7 cells
# Procedure Details: HTRF total-p53 in MCF-7 cells
# Assay type: cell-based
# Condition Notes: Homo sapiens, MCF7, 2 h incubation, median, read-out: HTRF total-p53 MCF-7, IC50 - [mol/l] (median)
In textbook form, pIC50 equals minus log to base ten of the concentration in mol/L.

Give recorded pIC50 with total-p53 in MCF-7 cells for the following molecule: Cc1cc(CC(=O)Nc2cc(-c3[nH]c4cccnc4c3-c3ccccn3)ccn2)nn1C
6.71

Give recorded pIC50 with total-p53 in MCF-7 cells for the following molecule: Cc1nn(C)c(C)c1CC(=O)Nc1cc(-c2[nH]c3cccnc3c2-c2ccccn2)ccn1
6.70

Give recorded pIC50 with total-p53 in MCF-7 cells for the following molecule: Cc1nn(C)cc1CC(=O)Nc1cc(-c2[nH]c3cccnc3c2-c2ccccn2)ccn1
6.68

Give recorded pIC50 with total-p53 in MCF-7 cells for the following molecule: O=C(Cc1cnc2ccccc2n1)Nc1cc(-c2[nH]c3cccnc3c2-c2ccccn2)ccn1
7.39

Give recorded pIC50 with total-p53 in MCF-7 cells for the following molecule: Cn1cc(CC(=O)Nc2cc(-c3[nH]c4cccnc4c3-c3ccccn3)ccn2)cn1
6.58

Give recorded pIC50 with total-p53 in MCF-7 cells for the following molecule: O=C(Cc1ccns1)Nc1cc(-c2[nH]c3cccnc3c2-c2ccccn2)ccn1
6.92

Give recorded pIC50 with total-p53 in MCF-7 cells for the following molecule: O=C(Cc1ccn(CC(F)(F)F)n1)Nc1cc(-c2[nH]c3cccnc3c2-c2ccccn2)ccn1
6.74

Give recorded pIC50 with total-p53 in MCF-7 cells for the following molecule: Cc1ncc(CC(=O)Nc2cc(-c3[nH]c4cccnc4c3-c3ccccn3)ccn2)o1
6.76

Give recorded pIC50 with total-p53 in MCF-7 cells for the following molecule: O=C(Cc1ccon1)Nc1cc(-c2[nH]c3cccnc3c2-c2ccccn2)ccn1
6.58

Give recorded pIC50 with total-p53 in MCF-7 cells for the following molecule: Cc1cc(CC(=O)Nc2cc(-c3[nH]c4cccnc4c3-c3ccccn3)ccn2)n(C)n1
6.84

---

Metric Name: pIC50
In textbook form, pIC50 equals minus log to base ten of the concentration in mol/L.

Give recorded pIC50 with human CSNK1G3 (Homo sapiens (Human), UniProt Q9Y6M4) for the following compound: Cn1cnc(CC(=O)Nc2cc(-c3[nH]c4cccnc4c3-c3ccccn3)ccn2)c1 [Example 5]
Sequence (Q9Y6M4 whole entry): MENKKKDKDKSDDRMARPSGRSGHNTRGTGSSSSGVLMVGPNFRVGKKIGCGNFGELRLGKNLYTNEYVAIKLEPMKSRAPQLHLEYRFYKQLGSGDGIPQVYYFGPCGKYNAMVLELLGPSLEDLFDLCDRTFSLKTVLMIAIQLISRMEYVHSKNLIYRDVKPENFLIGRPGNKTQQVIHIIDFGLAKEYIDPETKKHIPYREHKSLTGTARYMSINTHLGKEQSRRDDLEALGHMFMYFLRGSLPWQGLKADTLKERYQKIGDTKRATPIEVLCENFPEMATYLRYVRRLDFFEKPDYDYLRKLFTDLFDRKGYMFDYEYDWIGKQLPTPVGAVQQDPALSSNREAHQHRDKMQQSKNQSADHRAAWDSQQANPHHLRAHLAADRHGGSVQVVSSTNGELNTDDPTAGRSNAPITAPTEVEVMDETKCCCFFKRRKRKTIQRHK
7.13

Give recorded pIC50 with human CSNK1G3 (Homo sapiens (Human), UniProt Q9Y6M4) for the following compound: O=C(Cc1cc2ccccn2n1)Nc1cc(-c2[nH]c3cccnc3c2-c2ccccn2)ccn1 [Example 15]
7.99

Give recorded pIC50 with human CSNK1G3 (Homo sapiens (Human), UniProt Q9Y6M4) for the following compound: O=C(Nc1cc(-c2[nH]c3ccc(F)nc3c2-c2ccccn2)ccn1)[C@@H](CC(F)F)c1ccc(F)cc1 [Example C2, reference compound]
8.62

Give recorded pIC50 with human CSNK1G3 (Homo sapiens (Human), UniProt Q9Y6M4) for the following compound: O=C(Cc1ccon1)Nc1cc(-c2[nH]c3cccnc3c2-c2ccccn2)ccn1 [Example 10]
7.48

---

# Procedure Details: Solubility assay (thermodynamic solubility)
# Type: physicochemical
# Condition Notes: thermodynamic from solid, aqueous buffer, mean, read-out: Thermodynamic Solubility [μmol/L] (mean)
Assign Fulfilled to entries whose solubility thermodynamic at 24 h meets or exceeds 40 µmol/L; assign Not fulfilled to the rest.

State whether the measured solubility thermodynamic at 24 h reaches 40 µmol/L, counting equality as reaching it, for O=C(Cc1cc(C2CC2)on1)Nc1cc(-c2[nH]c3cccnc3c2-c2ccccn2)ccn1
Not fulfilled

State whether the measured solubility thermodynamic at 24 h reaches 40 µmol/L, counting equality as reaching it, for Cn1nc(CC(=O)Nc2cc(-c3[nH]c4cccnc4c3-c3ccccn3)ccn2)cc1C1CC1
Not fulfilled

State whether the measured solubility thermodynamic at 24 h reaches 40 µmol/L, counting equality as reaching it, for O=C(Cc1cnco1)Nc1cc(-c2[nH]c3cccnc3c2-c2ccccn2)ccn1
Fulfilled

State whether the measured solubility thermodynamic at 24 h reaches 40 µmol/L, counting equality as reaching it, for Cn1cnc(CC(=O)Nc2cc(-c3[nH]c4cccnc4c3-c3ccccn3)ccn2)c1
Fulfilled

State whether the measured solubility thermodynamic at 24 h reaches 40 µmol/L, counting equality as reaching it, for Cn1nc(CC(=O)Nc2cc(-c3[nH]c4cccnc4c3-c3ccccn3)ccn2)cc1C(F)(F)F
Not fulfilled

State whether the measured solubility thermodynamic at 24 h reaches 40 µmol/L, counting equality as reaching it, for Cc1cc(CC(=O)Nc2cc(-c3[nH]c4cccnc4c3-c3ccccn3)ccn2)on1
Fulfilled

State whether the measured solubility thermodynamic at 24 h reaches 40 µmol/L, counting equality as reaching it, for Cn1cc(C(CC(F)F)C(=O)Nc2cc(-c3[nH]c4cccnc4c3-c3ccccn3)ccn2)cn1 (centres unmarked)
Fulfilled

State whether the measured solubility thermodynamic at 24 h reaches 40 µmol/L, counting equality as reaching it, for Cc1cc(CC(=O)Nc2cc(-c3[nH]c4cccnc4c3-c3ccccn3)ccn2)no1
Not fulfilled

State whether the measured solubility thermodynamic at 24 h reaches 40 µmol/L, counting equality as reaching it, for O=C(Cc1ccn(CC(F)(F)F)n1)Nc1cc(-c2[nH]c3cccnc3c2-c2ccccn2)ccn1
Fulfilled

State whether the measured solubility thermodynamic at 24 h reaches 40 µmol/L, counting equality as reaching it, for Cc1nocc1CC(=O)Nc1cc(-c2[nH]c3cccnc3c2-c2ccccn2)ccn1
Not fulfilled

State whether the measured solubility thermodynamic at 24 h reaches 40 µmol/L, counting equality as reaching it, for Cc1cc(CC(=O)Nc2cc(-c3[nH]c4cccnc4c3-c3ccccn3)ccn2)nn1C
Not fulfilled

State whether the measured solubility thermodynamic at 24 h reaches 40 µmol/L, counting equality as reaching it, for Cc1nn(C)c(C)c1CC(=O)Nc1cc(-c2[nH]c3cccnc3c2-c2ccccn2)ccn1
Not fulfilled

State whether the measured solubility thermodynamic at 24 h reaches 40 µmol/L, counting equality as reaching it, for O=C(Cc1cnc2ccccn12)Nc1cc(-c2[nH]c3cccnc3c2-c2ccccn2)ccn1
Not fulfilled
